Target: THRB (gene 7068) (UniProt P10828)
Sequence (P10828 whole entry, looked up): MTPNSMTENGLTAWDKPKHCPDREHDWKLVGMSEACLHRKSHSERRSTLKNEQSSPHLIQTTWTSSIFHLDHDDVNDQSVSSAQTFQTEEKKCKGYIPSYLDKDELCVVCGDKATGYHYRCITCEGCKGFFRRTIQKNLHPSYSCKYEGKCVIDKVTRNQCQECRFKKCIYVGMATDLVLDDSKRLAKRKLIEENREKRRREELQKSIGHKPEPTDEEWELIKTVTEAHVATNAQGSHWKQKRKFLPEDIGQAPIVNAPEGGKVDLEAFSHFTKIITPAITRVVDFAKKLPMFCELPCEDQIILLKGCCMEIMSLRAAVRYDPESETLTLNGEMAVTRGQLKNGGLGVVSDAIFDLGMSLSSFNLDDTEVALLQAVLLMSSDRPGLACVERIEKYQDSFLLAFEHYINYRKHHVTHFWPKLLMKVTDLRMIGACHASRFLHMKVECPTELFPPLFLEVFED
Experiment: TOX21_TRB_COA_Agonist_Followup_ratio: Tox21 Thyroid Hormone Receptor beta Agonism through Coactivator Recruitment Follow-Up Assay, Ratio (AID 2283963)
The source made the active and inactive calls. The calls were made as follows: active = hit-call score of the fitted dose curve at least 0.9, where 1 is the maximum; inactive = score below 0.9.
Outcomes: active, inactive

{"GIVEN SMILES": "O=C(O)CCCCCCNC1c2ccccc2CCc2ccccc21", "CAT": "active"}
{"GIVEN SMILES": "CC(C)CCCCCCCOC(=O)c1ccccc1C(=O)OCCCCCCCC(C)C", "CAT": "inactive"}
{"GIVEN SMILES": "CCn1cc[n+](C)c1", "CAT": "inactive"}
{"GIVEN SMILES": "CNC(=O)ON=C(CSC)C(C)(C)C", "CAT": "inactive"}
{"GIVEN SMILES": "COc1ccc(OC)c([C@@H](O)[C@H](C)N)c1", "CAT": "inactive"}

====

Assay: CEETOX_H295R_OHPREG: CeeTox H295R High-throughput Steroidogenesis Assay for OH-Pregnenolone (OHPREG) (AID 2283434)
Details: actives raise or lower the signal
Active and inactive are the calls of the source. How the source made its calls: active means hit-call score of the fitted dose curve at least 0.9, where 1 is the maximum; inactive means score below 0.9.
Outcomes: active, inactive

{"COMPOUND": "Cc1ccc(OP(=O)(Oc2ccc(C)cc2)Oc2ccc(C)cc2)cc1 (tested in a mixture with another compound)", "CAT": "inactive"}
{"COMPOUND": "CC(=O)c1cc2c(cc1C)C(C)(C)C(C)CC2(C)C (stereo not given)", "CAT": "inactive"}
{"COMPOUND": "c1ccc(Nc2ccc3ccccc3c2)cc1", "CAT": "inactive"}
{"COMPOUND": "CC(C)(C)C(O)C(Oc1ccc(-c2ccccc2)cc1)n1cncn1 (stereo not given)", "CAT": "inactive"}
{"COMPOUND": "O=C=Nc1ccccc1", "CAT": "active"}

====

Test system: SRD5A2 (gene 6716)
Assay: CCTE_Deisenroth_5AR_NBTE_ratio: CCTE's 5alpha-reductase NanoBRET Target Engagement Assay - Ratio, Deisenroth Lab (AID 2284322)
Conditions: actives raise or lower the signal
Activity calls are given as the source filed them. Rule for the calls: active = hit-call score of the fitted dose curve at least 0.9, where 1 is the maximum; inactive = score below 0.9.
OBSERVED PROPERTY: outcome

{"COMPOUND": "CC(=O)c1cc2c(cc1C)C(C)(C)C(C)CC2(C)C (stereo not given)", "OBSERVED PROPERTY": "outcome", "DATA VALUE": "inactive"}
{"COMPOUND": "CCCCCCCCCCCCCCCC[N+](C)(C)C", "OBSERVED PROPERTY": "outcome", "DATA VALUE": "inactive"}
{"COMPOUND": "C=CC(=O)OCC(CC)CCCC (stereo not given)", "OBSERVED PROPERTY": "outcome", "DATA VALUE": "inactive"}
{"COMPOUND": "CC(C)c1ccc(O)cc1", "OBSERVED PROPERTY": "outcome", "DATA VALUE": "inactive"}
{"COMPOUND": "O=P(O)(Oc1ccccc1)Oc1ccccc1", "OBSERVED PROPERTY": "outcome", "DATA VALUE": "inactive"}

====

Read-out: Tissue Factor, F3 (gene 2152)
Test: BSK_LPS_TissueFactor: BioMAP Diversity Plus: LPS Assay for Tissue Factor Biomarker Activity (AID 2283084)
Details: primary human HUVEC with PBMC; actives raise or lower the signal
Description: BSK_LPS is a cell-based, multiplexed-readout assay that uses umbilical vein endothelium and peripheral blood mononuclear cells, a human vascular primary cell co-culture, with measurements taken at 24 hours after chemical dosing in a 96-well plate.BSK_LPS_TissueFactor is an assay component measured in the BSK_LPS assay. […] This assay endpoint, BSK_LPS_TissueFactor, was analyzed with bidirectional fitting relative to DMSO as the negative control and baseline of activity. […]
Calls of active or inactive are those of the source. The calls were made as follows: active = hit-call score of the fitted dose curve at least 0.9, where 1 is the maximum; inactive = score below 0.9.
Outcomes: TRUE for active, FALSE for inactive

{"COMPOUND": "O=[N+]([O-])c1ccc(Cl)cc1", "CAT": "FALSE"}
{"COMPOUND": "Oc1cc(Cl)ccc1Cl", "CAT": "FALSE"}
{"COMPOUND": "CC(C)COP(=O)(OCC(C)C)OCC(C)C", "CAT": "FALSE"}
{"COMPOUND": "CNC(=O)Oc1cc(C)c(SC)c(C)c1", "CAT": "FALSE"}
{"COMPOUND": "COCC(=O)N(c1c(C)cccc1C)N1CCOC1=O", "CAT": "FALSE"}
{"COMPOUND": "CC(C)(C)C(O)C(Oc1ccc(-c2ccccc2)cc1)n1cncn1 (configuration not stated)", "CAT": "FALSE"}
{"COMPOUND": "CC1(C)[C@H](C(=O)O[C@H](C#N)c2cccc(Oc3ccccc3)c2)[C@@H]1C=C(Br)Br", "CAT": "FALSE"}
{"COMPOUND": "O=P1(NCCCl)OCCCN1CCCl (configuration not stated)", "CAT": "FALSE"}
{"COMPOUND": "CC(C)(c1cc(Cl)c(O)c(Cl)c1)c1cc(Cl)c(O)c(Cl)c1", "CAT": "TRUE"}
{"COMPOUND": "O=C(CCl)c1ccccc1", "CAT": "TRUE"}
{"COMPOUND": "N#CCCCCC#N", "CAT": "FALSE"}
{"COMPOUND": "CCCC[N+](CCCC)(CCCC)CCCC", "CAT": "FALSE"}
{"COMPOUND": "O=C1C(Cl)=C(Cl)C(=O)C(Cl)=C1Cl", "CAT": "TRUE"}
{"COMPOUND": "C=CCN(CC=C)C(=O)C(Cl)Cl", "CAT": "FALSE"}
{"COMPOUND": "O=[N+]([O-])O", "CAT": "FALSE"}
{"COMPOUND": "[Cd+2].[Cl-].[Cl-]", "CAT": "FALSE"}
{"COMPOUND": "COc1ccc(CO)cc1", "CAT": "FALSE"}
{"COMPOUND": "O=c1[nH]c(Cl)c(Cl)cc1Cl", "CAT": "FALSE"}
{"COMPOUND": "COC(C)(C)CCC[C@H](C)C/C=C/C(C)=C/C(=O)OC(C)C", "CAT": "TRUE"}
{"COMPOUND": "C=CC(=O)OCC(CC)CCCC (configuration not stated)", "CAT": "FALSE"}
{"COMPOUND": "CC(C)(C)C(=O)CCl", "CAT": "FALSE"}
{"COMPOUND": "O=[N+]([O-])C=Cc1ccccc1", "CAT": "TRUE"}
